Values from patent US20130252930A1

Target: CYP17 (human testicular microsome) (Homo sapiens)
Construct: using microsomal fraction from human testis (Celsis Cat #S00110) as the enzyme source; tissue Celsis S00110; host or cells: human testis microsomal fraction
Sequence (P05093 whole entry): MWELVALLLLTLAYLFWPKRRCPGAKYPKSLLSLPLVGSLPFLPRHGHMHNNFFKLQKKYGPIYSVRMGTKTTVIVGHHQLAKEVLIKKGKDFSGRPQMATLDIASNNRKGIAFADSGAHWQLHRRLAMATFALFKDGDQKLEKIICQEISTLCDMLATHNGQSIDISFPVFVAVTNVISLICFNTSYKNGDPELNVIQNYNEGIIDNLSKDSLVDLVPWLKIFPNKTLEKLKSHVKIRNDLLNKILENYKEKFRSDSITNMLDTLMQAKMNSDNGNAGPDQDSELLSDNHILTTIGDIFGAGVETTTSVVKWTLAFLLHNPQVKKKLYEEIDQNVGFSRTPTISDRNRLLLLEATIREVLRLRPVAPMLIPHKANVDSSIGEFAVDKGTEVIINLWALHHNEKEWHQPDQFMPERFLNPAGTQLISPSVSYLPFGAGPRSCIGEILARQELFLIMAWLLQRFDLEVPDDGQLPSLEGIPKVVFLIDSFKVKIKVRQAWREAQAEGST
Assay: CYP17 enzymatic assay (% inhibition at 1 nM) (Biological Example 12)
Format: biochemical
Details: compound at 1 nM, read-out: CYP17 enzymatic assay % inhibition at 1 nM (Biological Example No. 12)
readout: inhibition at 0.001 µM

// known answers, use as guide
compound=CCc1cncc(C2=CC[C@H]3[C@@H]4CC[C@H]5C[C@@H](OC)CC[C@]5(C)[C@H]4CC[C@]23C)c1 measurement_target="CYP17 (human testicular microsome) (Homo sapiens)" readout="inhibition at 0.001 µM" observed_value="10 to 50%"
compound="CCC(=O)N1CCC[C@@]2(C)C(CCC3C2CC[C@]2(C)C(c4cccnc4)=CCC32)C1 (some centres unmarked)" measurement_target="CYP17 (human testicular microsome) (Homo sapiens)" readout="inhibition at 0.001 µM" observed_value="10 to 50%"
compound="CCc1ccncc1C1=CC=C2C3CCC4CNC(=O)CC[C@]4(C)C3CC[C@]12C (some centres unmarked)" measurement_target="CYP17 (human testicular microsome) (Homo sapiens)" readout="inhibition at 0.001 µM" observed_value="10 to 50%"
compound="CCc1ccncc1C1=CC=C2C3CCC4C[C@@H](O)CC[C@]4(C)C3CC[C@]12C (some centres unmarked)" measurement_target="CYP17 (human testicular microsome) (Homo sapiens)" readout="inhibition at 0.001 µM" observed_value="< 10%"
compound="COC(=O)NC1CC[C@@]2(C)C(=CCC3C2CC[C@]2(C)C(n4ccnc4)=CCC32)C1 (some centres unmarked)" measurement_target="CYP17 (human testicular microsome) (Homo sapiens)" readout="inhibition at 0.001 µM" observed_value="> 50%"

Task: Return the recorded inhibition at 0.001 µM value; entry: CC(=O)N(C)C1CC[C@@]2(C)C(CCC3C2CC[C@]2(C)C(c4cccnc4)=CCC32)C1 (some centres unmarked)
Result: 10 to 50%

Task: Return the recorded inhibition at 0.001 µM value; entry: CNC1CC[C@@]2(C)C(CCC3C2CC[C@]2(C)C(c4cncc(C)c4)=CCC32)C1 (some centres unmarked)
Result: 10 to 50%

Task: Return the recorded inhibition at 0.001 µM value; entry: CCCC(=O)N[C@@H]1CC[C@@]2(C)C(=CC[C@@H]3[C@@H]2CC[C@]2(C)C(c4cccnc4)=CC[C@@H]32)C1
Result: > 50%

* * *

Biological target: Cyp21 enzyme (Human HEK 293-Cyp21 stable transfected cells) (Homo sapiens, UniProt P08686)
Construct: expressed in transfected cells
Assay: CYP21-HEK293 enzymatic assay (% inhibition at 100 nM) (Biological Example 10)
Type: cell-based
Settings: compound at 100 nM; HEK 293-Cyp21 cells; read-out: CYP21-HEK293 enzymatic assay % inhibition at 100 nM (Biological Example No. 10)
readout: inhibition at 0.1 µM

// known answers, use as guide
compound=Cc1ccncc1C1=CC[C@H]2[C@@H]3CC[C@H]4CC(=O)NCC[C@]4(C)[C@H]3CC[C@]12C measurement_target="Cyp21 enzyme (Human HEK 293-Cyp21 stable transfected cells) (Homo sapiens, UniProt P08686)" readout="inhibition at 0.1 µM" observed_value="< 30%"
compound=C[C@]12CC[C@H]3[C@@H](CC=C4C[C@H](NC(=O)C5CC5)CC[C@@]43C)C1=CC=C2n1ccnc1 measurement_target="Cyp21 enzyme (Human HEK 293-Cyp21 stable transfected cells) (Homo sapiens, UniProt P08686)" readout="inhibition at 0.1 µM" observed_value="< 30%"

Task: Return the recorded inhibition at 0.1 µM value; entry: C[C@]12CCC(=O)C=C1CC[C@@H]1[C@@H]2CC[C@]2(C)C(c3cccnc3)CC[C@@H]12 (stereo partly drawn)
Result: ≥ 30%

* * *

Biological target: Cyp21 enzyme (Human HEK 293-Cyp21 stable transfected cells) (Homo sapiens, UniProt P08686)
Construct: expressed in transfected cells
Experiment: CYP21-HEK293 enzymatic assay (IC50) (Biological Example 11)
Format: cell-based
Conditions: HEK 293-Cyp21 stable transfected cells; read-out: CYP21-HEK293 enzymatic assay IC50 (Biological Example No. 11)
Entries and their IC50 values follow.

// known answers, use as guide
compound="C[C@]12CCN(S(C)(=O)=O)CCC1CCC1C2CC[C@]2(C)C(n3cncc3C#N)=CCC12 (stereo partly shown)" observed_value="> 1000 nM"
compound=C[C@]12CC[C@H]3[C@@H](CC4(CC4)C4=CC(=O)CC[C@@]43C)C1=CC=C2c1cncc(F)c1 observed_value="10 to 100 nM"
compound="CC1C[C@@H]2[C@H](CC[C@]3(C)C(c4cccnc4)CC[C@@H]23)[C@@]2(C)CCNC(=O)C=C12 (stereo partly shown)" observed_value="< 10 nM"
compound=C[C@]12CC[C@H]3[C@@H](CC4(CC4)C4=CC(=O)CC[C@@]43C)C1=CC=C2c1cccnc1 observed_value="< 10 nM"

Task: Return the recorded IC50 value; entry: CC1CC2C3=CC=C(c4cccnc4)[C@@]3(C)CCC2[C@@]2(C)CCN(C)C(=O)C=C12 (stereo partly shown)
Result: 10 to 100 nM

Task: Return the recorded IC50 value; entry: CC1C[C@H]2C3=CC=C(c4cccnc4)[C@@]3(C)CC[C@@H]2[C@@]2(C)C=CC(=O)C=C12 (stereo partly shown)
Result: < 10 nM

Task: Return the recorded IC50 value; entry: CN1CC[C@@]2(C)C(=CC1=O)CCC1C3=CC=C(c4cncc(F)c4)[C@@]3(C)CCC12 (stereo partly shown)
Result: > 100 nM

Task: Return the recorded IC50 value; entry: C[C@]12CCC3C(CCC4CCN(S(C)(=O)=O)CC[C@@]43C)C1=CC=C2n1ccnc1 (stereo partly shown)
Result: > 1000 nM

Task: Return the recorded IC50 value; entry: CC1C[C@@H]2[C@H](CC[C@]3(C)C(c4cccnc4)CC[C@@H]23)[C@@]2(C)C=CC(=O)C=C12 (stereo partly shown)
Result: < 10 nM

Task: Return the recorded IC50 value; entry: C=C1C[C@H]2C3=CC=C(c4cccnc4)[C@@]3(C)CC[C@@H]2[C@@]2(C)CCC(=O)C=C12
Result: 10 to 100 nM

Task: Return the recorded IC50 value; entry: CC1CC2C3=CC=C(c4cncc(F)c4)[C@@]3(C)CCC2[C@@]2(C)CCN(C)C(=O)C=C12 (stereo partly shown)
Result: > 100 nM

Task: Return the recorded IC50 value; entry: C=C1C[C@H]2C3=CC=C(c4cccnc4)[C@@]3(C)CC[C@@H]2[C@@]2(C)C=CC(=O)C=C12
Result: < 10 nM

Task: Return the recorded IC50 value; entry: CN1CC[C@@]2(C)C(=CC1=O)C1CC1[C@H]1C3=CC=C(c4cccnc4)[C@@]3(C)CC[C@@H]12 (stereo partly shown)
Result: 10 to 100 nM

* * *

Target: Cyp21 enzyme (Human HEK 293-Cyp21 stable transfected cells) (Homo sapiens, UniProt P08686)
Construct: expressed in transfected cells
Sequence (P08686 1-495): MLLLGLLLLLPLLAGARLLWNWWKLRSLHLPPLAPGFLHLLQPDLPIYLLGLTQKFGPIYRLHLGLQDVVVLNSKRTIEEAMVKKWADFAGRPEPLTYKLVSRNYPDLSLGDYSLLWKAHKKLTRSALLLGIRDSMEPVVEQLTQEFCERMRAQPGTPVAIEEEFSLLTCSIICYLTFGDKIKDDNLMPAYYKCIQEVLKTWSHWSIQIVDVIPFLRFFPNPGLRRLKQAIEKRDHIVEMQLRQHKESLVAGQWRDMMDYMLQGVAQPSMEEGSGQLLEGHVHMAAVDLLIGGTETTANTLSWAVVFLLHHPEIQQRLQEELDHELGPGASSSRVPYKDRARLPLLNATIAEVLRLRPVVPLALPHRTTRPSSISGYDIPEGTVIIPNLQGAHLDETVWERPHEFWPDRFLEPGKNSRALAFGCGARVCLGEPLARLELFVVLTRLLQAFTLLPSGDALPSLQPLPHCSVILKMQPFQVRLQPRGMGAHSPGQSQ
Experiment: CYP21-HEK293 enzymatic assay (% inhibition at 100 nM) (Biological Example 10)
Format: cell-based
Details: 100 nM compound, HEK 293-Cyp21 cells; read-out: Biological Example No. 10: CYP21-HEK293 percent inhibition at 100 nM
readout: inhibition at 0.1 µM

// known answers, use as guide
compound="C[C@]12CC[C@H]3[C@@H](CCN4C(=O)CCCC[C@]34C)[C@@H]1CC=C2c1cccnc1 [Compound 38]" readout="inhibition at 0.1 µM" observed_value="< 30%"
compound="CN1CC=C2CC[C@@H]3[C@H](CC[C@]4(C)C(n5ccnc5)=CC[C@@H]34)[C@@]2(C)CC1 [Compound 151]" readout="inhibition at 0.1 µM" observed_value="< 30%"
compound="C[C@]12CCCC(=O)CC1=CC[C@@H]1[C@@H]2CC[C@]2(C)C(c3cnccn3)=CC[C@@H]12 [Compound 142]" readout="inhibition at 0.1 µM" observed_value="≥ 30%"

Task: Return the recorded inhibition at 0.1 µM value; entry: COc1cncc(C2=CC=C3[C@@H]4CCC5=CC(=O)CC[C@]5(C)[C@H]4CC[C@]23C)c1 [Compound 83]
Result: ≥ 30%

Task: Return the recorded inhibition at 0.1 µM value; entry: C[C@]12CC[C@H]3[C@@H](CC[C@H]4CC(=O)NCC[C@@]43C)C1=CC=C2c1cccnc1 [Compound 165]
Result: < 30%

Task: Return the recorded inhibition at 0.1 µM value; entry: C[C@]12CCNC(=O)C=C1CC[C@@H]1[C@@H]2CC[C@]2(C)C(n3ccnn3)=CC[C@@H]12 [Compound 59]
Result: < 30%

Task: Return the recorded inhibition at 0.1 µM value; entry: C[C@]12CC(O)C[C@@H]1CC[C@@H]1[C@@H]2CC[C@]2(C)C(n3ccnc3)=CC[C@@H]12 (some centres unmarked) [Compound 109]
Result: ≥ 30%

Task: Return the recorded inhibition at 0.1 µM value; entry: CCc1cncc(C2=CC[C@H]3[C@@H]4CCC5=CC(=O)N(C)CC[C@]5(C)[C@H]4CC[C@]23C)c1 [Compound 145]
Result: ≥ 30%

Task: Return the recorded inhibition at 0.1 µM value; entry: CN1CC=C2CC[C@@H]3[C@H](CC[C@]4(C)C(c5cccnc5)=CC[C@@H]34)[C@@]2(C)CC1 [Compound 147]
Result: < 30%

Task: Return the recorded inhibition at 0.1 µM value; entry: COc1cncc(C2=CC=C3[C@@H]4CCC5=CC(=O)N(C)CC[C@]5(C)[C@H]4CC[C@]23C)c1 [Compound 159]
Result: ≥ 30%

Task: Return the recorded inhibition at 0.1 µM value; entry: C[C@]12CCC(=O)C=C1CCC1C2CC[C@]2(C)C(c3cccnc3)=CCC12 (some centres unmarked) [B, reference compound]
Result: ≥ 30%

Task: Return the recorded inhibition at 0.1 µM value; entry: CN1CC[C@@]2(C)C(=CC1=O)CC[C@@H]1[C@@H]2CC[C@]2(C)C(n3ccnc3)=CC[C@@H]12 [Compound 146]
Result: < 30%

Task: Return the recorded inhibition at 0.1 µM value; entry: C[C@]12CC[C@H]3[C@@H](CC=C4C[C@@H](O)CC[C@@]43C)C1=CC=C2c1cccnc1 [Compound 79]
Result: < 30%

Task: Return the recorded inhibition at 0.1 µM value; entry: Cc1cncc(C2=CC=C3[C@@H]4CCC5=CC(=O)N(C)CC[C@]5(C)[C@H]4CC[C@]23C)c1 [Compound 160]
Result: < 30%
